Numbers sourced from ChEMBL document CHEMBL1944627.

Recorded Ratio values for a group of molecules are listed next.
assay: Ratio of drug uptake in striatum in Sprague-Dawley rat at 1 to 3 MBq, iv after 2 mins to drug uptake in striatum in Sprague-Dawley rat at 1 to 3 MBq, iv after 30 mins; conditions: in vivo
Lab note: record just the number, no unit beside it.

Please review the entries below; each comes with its answer.
> print(dat)
                                    molecule  measuredmetric  recordedresult
 1  CCN(CC)C(=O)C1CCCc2c1c1ccccc1n2CC[18F] (stereo unspecified)           Ratio            4.08
 2  CCN(CC)C(=O)C1CCCc2c1c1ccc(F)cc1n2CC[18F] (stereo unspecified)           Ratio             1.8
 3  CCCCCCN(CCCCCC)C(=O)C1CCCc2c1c1ccccc1n2CC[18F] (stereo unspecified)           Ratio            0.44
 4  CCN(CC)C(=O)C1CCCc2c1c1cc(OC)ccc1n2CC[18F] (stereo unspecified)           Ratio            4.25
 5  CCCN(CCC)C(=O)C1CCCc2c1c1ccccc1n2CC[18F] (stereo unspecified)           Ratio            2.39
 6  CCN(CC)C(=O)C1CCCc2c1c1cc(F)c(OC)cc1n2CC[18F] (stereo unspecified)           Ratio               3
 7  CCOc1ccc2c(c1)c1c(n2CC[18F])CCCC1C(=O)N(CC)CC (stereo unspecified)           Ratio               3
 8  CCN(CC)C(=O)C1CCCc2c1c1ccc(OC)cc1n2CC[18F] (stereo unspecified)           Ratio               4
 9  CCN(Cc1ccccc1)C(=O)C1CCCc2c1c1ccccc1n2CC[18F] (stereo unspecified)           Ratio             4.3
10  CCN(CC)C(=O)C1Sc2ccccc2-c2c1c1ccccc1n2CCF (stereo unspecified)           Ratio            2.16

-- ask Could you tell me which Ratio is on file for CCN(CC)C(=O)C1CCCc2c1c1cc(OC)c(F)cc1n2CC[18F] (stereo unspecified) ?
-- reply 4.17

* * *

assay: Metabolic stability in Sprague-Dawley rat brain assessed as compound remaining at 1 to 3 MBq, iv after 30 mins by HPLC analysis; type: ADME, organism-based; conditions: read-out: Stability
measuredMetric: remaining at 0.5 h
State the result as a value with its unit after it.

-- ask Could you tell me which remaining at 0.5 h is on file for CCN(CC)C(=O)C1Sc2ccccc2-c2c1c1ccccc1n2CCF (stereo unspecified) ?
-- reply 95%

* * *

The following compounds each carry a recorded pKi for Translocator protein (Rattus norvegicus, UniProt P16257).
pKi is defined as minus the log10 of a concentration measured in mol/L.

Please review the entries below; each comes with its answer.
> print(dat)
                                   compound  recordedresult
1  CCN(Cc1ccccc1)C(=O)C1CCCc2c1c1ccccc1n2CCF (racemic)            9.14
2  CC(C)N(C)C(=O)C1CCCc2c1c1ccccc1n2CCF (racemic)            8.40
3  CCOc1ccc2c(c1)c1c(n2CCF)CCCC1C(=O)N(CC)CC (racemic)            8.51

-- ask Could you tell me which pKi is on file for O=C(C1CCCc2c1c1ccccc1n2CCF)N1CCOCC1 (racemic) ?
-- reply 6.22

-- ask Could you tell me which pKi is on file for CN(C)C(=O)C1CCCc2c1c1ccccc1n2CCF (racemic) ?
-- reply 6.30
